- TGT: T1, 4H754-bH
- T1 chain: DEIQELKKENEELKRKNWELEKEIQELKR
- MEASUREMENT DESCRIPTION: two-hybrid library CCNG1;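 also: natural log of median RNA to DNA barcode read ratio; higher means stronger binding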
QUANTITY MEASURED: interaction score
One number for each entry.

Sample answers from the record:
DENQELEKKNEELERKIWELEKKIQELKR [4H1446-bH]
0.109
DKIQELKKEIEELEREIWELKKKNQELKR [4H2576-bH]
-2.65
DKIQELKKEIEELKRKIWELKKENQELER [4H2667-bH]
-0.933

For every item below, please supply its interaction score.
1. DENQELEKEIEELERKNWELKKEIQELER [4H1081-bH]
2. DEIQELKKENEELKREIWELKKKIQELER [4H717-bH]
3. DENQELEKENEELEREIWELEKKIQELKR [4H1158-bH]
4. DEIQELKKEIEELERKNWELEKKNQELKR [4H568-bH]
5. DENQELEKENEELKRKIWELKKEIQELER [4H1257-bH]
6. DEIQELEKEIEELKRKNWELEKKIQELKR [4H118-bH]
7. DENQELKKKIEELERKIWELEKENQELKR [4H1828-bH]
8. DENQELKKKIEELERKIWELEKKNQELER [4H1831-bH]

1. -0.22
2. 0.538
3. 0.159
4. 0.644
5. -0.282
6. 0.181
7. 0.147
8. 0.0674
